- Test system: P. falciparum strain Dd2
- assay-procedure: SYBR Green I fluorescence antiplasmodial assay, Dd2
- Type: cell-based, Plasmodium falciparum
- run-conditions: Plasmodium falciparum, DD2, 72 h, read-out: Dd2 EC50
value-kind: pEC50
Convention used: pEC50 is expressed as -log10 of the molar concentration.

# value lookup — system P. falciparum strain Dd2, readout pEC50, item `CC1(C)NC(=O)[C@H](CCCCCC(=O)[C@H]2CO2)NC(=O)[C@H]2CCCN2C(=O)[C@H](Cc2ccccc2)NC1=O` 7.51
